Molecular target: fMet-Leu-Phe receptor (Homo sapiens, UniProt P21462)
Sequence (P21462 whole entry): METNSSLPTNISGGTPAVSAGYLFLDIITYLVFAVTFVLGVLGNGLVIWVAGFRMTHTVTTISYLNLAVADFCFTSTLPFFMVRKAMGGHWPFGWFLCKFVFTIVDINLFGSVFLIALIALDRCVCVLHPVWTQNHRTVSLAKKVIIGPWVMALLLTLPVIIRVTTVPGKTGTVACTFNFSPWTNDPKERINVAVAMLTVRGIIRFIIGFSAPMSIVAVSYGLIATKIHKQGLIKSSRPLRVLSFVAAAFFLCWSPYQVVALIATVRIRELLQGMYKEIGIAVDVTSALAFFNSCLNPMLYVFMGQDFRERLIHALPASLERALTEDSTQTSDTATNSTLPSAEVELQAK
Experiment: Binding affinity towards fMLF receptor using human neutrophils
endpoint-name: IC50 (µM)

INSERT INTO assay_data (structure_notation, endpoint_name, value_reported) VALUES
  ('CSCC[C@H](NC(N)=O)C(=O)N[C@@H](CC(C)C)C(=O)N[C@@H](Cc1ccccc1)C(=O)O', 'IC50', 2),
  ('CSCC[C@H](NC(=O)Nc1cccc(C)c1)C(=O)N[C@@H](CC(C)C)C(=O)N[C@@H](Cc1ccccc1)C(=O)O', 'IC50', 0.1),
  ('CCCCNC(=O)N[C@@H](Cc1ccccc1)C(=O)N[C@H](CC(C)C)C(=O)N[C@@H](Cc1ccccc1)C(=O)N[C@H](CC(C)C)C(=O)N[C@@H](Cc1ccccc1)C(=O)O', 'IC50', 0.3),
  ('CSCC[C@H](NC(=O)Nc1ccccc1)C(=O)N[C@@H](CC(C)C)C(=O)N[C@@H](Cc1ccccc1)C(=O)O', 'IC50', 0.03),
  ('CC(C)C[C@@H](NC(=O)[C@H](Cc1ccccc1)NC(=O)[C@@H](CC(C)C)NC(=O)[C@H](Cc1ccccc1)NC(N)=O)C(=O)N[C@@H](Cc1ccccc1)C(=O)O', 'IC50', 0.8),
  ('CSCC[C@H](NC(=O)Nc1ccc(Cl)cc1)C(=O)N[C@@H](CC(C)C)C(=O)N[C@@H](Cc1ccccc1)C(=O)O', 'IC50', 0.002),
  ('CSCC[C@H](NC(=O)NCc1ccccc1)C(=O)N[C@@H](CC(C)C)C(=O)N[C@@H](Cc1ccccc1)C(=O)O', 'IC50', 0.8),
  ('CSCC[C@H](NC(=O)NCC(C)C)C(=O)N[C@@H](CC(C)C)C(=O)N[C@@H](Cc1ccccc1)C(=O)O', 'IC50', 1),
  ('CCNC(=O)N[C@@H](CCSC)C(=O)N[C@@H](CC(C)C)C(=O)N[C@@H](Cc1ccccc1)C(=O)O', 'IC50', 1),
  ('CNC(=O)N[C@@H](CCSC)C(=O)N[C@@H](CC(C)C)C(=O)N[C@@H](Cc1ccccc1)C(=O)O', 'IC50', 3),
  ('CC(C)C[C@@H](NC(=O)[C@H](Cc1ccccc1)NC(=O)[C@@H](CC(C)C)NC(=O)[C@H](Cc1ccccc1)NC(=O)Nc1ccccc1)C(=O)N[C@@H](Cc1ccccc1)C(=O)O', 'IC50', 0.05),
  ('CSCC[C@H](NC(=O)NC(C)C)C(=O)N[C@@H](CC(C)C)C(=O)N[C@@H](Cc1ccccc1)C(=O)O', 'IC50', 2),
  ('CSCC[C@H](NC(=O)Nc1ccc(C)cc1)C(=O)N[C@@H](CC(C)C)C(=O)N[C@@H](Cc1ccccc1)C(=O)O', 'IC50', 0.002),
  ('CSCC[C@H](NC(=O)NC12CC3CC(CC(C3)C1)C2)C(=O)N[C@@H](CC(C)C)C(=O)N[C@@H](Cc1ccccc1)C(=O)O', 'IC50', 0.9);

----------
Property: EC50; scope: individual compounds
Target: fMet-Leu-Phe receptor (Homo sapiens)
Assay: Agonistic activity was determined by measuring the ability to induce superoxide production(as measured by reduction of cytochrome C) using human neutrophils
Format: functional
endpoint-name: EC50 (nM)

INSERT INTO measurements (structure_notation, unit_text, value_reported) VALUES
  ('CSCC[C@H](NC(=O)Nc1ccccc1)C(=O)N[C@@H](CC(C)C)C(=O)N[C@@H](Cc1ccccc1)C(=O)O', 'nM', 40),
  ('CCCCNC(=O)N[C@@H](CCSC)C(=O)N[C@@H](CC(C)C)C(=O)N[C@@H](Cc1ccccc1)C(=O)O', 'nM', 300),
  ('CSCC[C@H](NC(=O)Nc1ccc(C)cc1)C(=O)N[C@@H](CC(C)C)C(=O)N[C@@H](Cc1ccccc1)C(=O)O', 'nM', 2);
